# EXPERIMENT SUMMARY: activity coefficient (dimensionless); of the first substance listed, at infinite dilution; xn = mol fraction of the nth substance listed
# ASSAY CONTEXT: 343.15 K; Liquid; Chromatography; x1 = 0
Examples of compounds with documented activity coefficient follow.
MEASUREMENT LABEL: activity coefficient

{"columns": ["COMPOUND", "RECORDED VALUE"],
 "data": [
  ["CCCO [propan-1-ol] + CN(C)c1cc[n+](COCCCOC[n+]2ccc(N(C)C)cc2)cc1.O=S(=O)([N-]S(=O)(=O)C(F)(F)F)C(F)(F)F.O=S(=O)([N-]S(=O)(=O)C(F)(F)F)C(F)(F)F", 1.22],
  ["CC(C)O [propan-2-ol] + CCCOC[n+]1ccn(C)c1.F[B-](F)(F)F", 2.6],
  ["Cc1cccc(C)c1 [1,3-dimethylbenzene] + CCCOC[n+]1ccn(Cc2ccccc2)c1.O=S(=O)([N-]S(=O)(=O)C(F)(F)F)C(F)(F)F", 1.35],
  ["CC(C)CO [2-methyl-1-propanol] + CCCCCCCCn1cc[n+](COCCC)c1C.O=S(=O)([N-]S(=O)(=O)C(F)(F)F)C(F)(F)F", 1.03],
  ["CCCCO [butan-1-ol] + CCCOC[n+]1ccn(C)c1.F[B-](F)(F)F", 3.76],
  ["CCCCO [butan-1-ol] + N#C[N-]C#N.N#C[N-]C#N.c1ccc(Cn2cc[n+](COCCCOC[n+]3ccn(Cc4ccccc4)c3)c2)cc1", 1.61],
  ["Cc1ccccc1C [1,2-dimethylbenzene] + CCCOC[n+]1ccn(Cc2ccccc2)c1.O=S(=O)([N-]S(=O)(=O)C(F)(F)F)C(F)(F)F", 1.22]
]}
